TEST_SYSTEM: T1, hRpn10^305–377 (RAZUL, Rpn10 AZUL-binding domain) (human, UniProt P55036 305-377)
T1 construct: Isotope-labelled (15N, 13C, 2H) in some NMR samples; also called hRpn10 RAZUL; source: E. coli Rosetta 2 (DE3), purified (glutathione sepharose, PreScission cleavage, SEC); not shown: GST, N-terminal, cleaved
T1 sequence (looked up): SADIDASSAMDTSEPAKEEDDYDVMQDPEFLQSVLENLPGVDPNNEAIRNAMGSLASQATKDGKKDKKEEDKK
PROTOCOL_DESCRIPTION: ITC; 25 °C, MicroCal iTC200; E6AP AZUL injected into hRpn10 305-377 (0.0405 mM) or hRpn10 322-366 peptides (0.01 mM) in the cell; 10 mM MOPS pH 6.5, 50 mM NaCl, 5 mM DTT, 10 μM zinc sulfate; one-site fit
RUN_PARAMETERS: both partners purified
REPORTED_ENDPOINT: pKd
Remember, pKd is on a log scale: it is -log10 of the molar concentration.

(Q) I would be grateful if you could share the reported pKd for E6AP AZUL (amino-terminal zinc-binding domain of ubiquitin E3a ligase), amino acids 24 to 87 (domain or fragment, human, UniProt Q05086 24-87, looked up, E6AP/UBE3A AZUL domain, human, amino acids 24 to 87, subcloned from HA-E6AP isoform II; zinc sulfate in the buffers; Isotope-labelled (15N, 13C) in some NMR samples; also called AZUL domain; source: E. coli BL21 (DE3), purified (Ni-NTA, thrombin cleavage, SEC); not shown: polyhistidine tag, N-terminal, cleaved) MKRAAAKHLIERYYHQLTEGCGNEACTNEFCASCPTFLRMDNNAAAIKALELYKINAKLCDPHP .
(A) 7.94
